Test system: T1, Rhesus GIPR (rhesus, UniProt F7E1R9 22-466)
T1 sequence: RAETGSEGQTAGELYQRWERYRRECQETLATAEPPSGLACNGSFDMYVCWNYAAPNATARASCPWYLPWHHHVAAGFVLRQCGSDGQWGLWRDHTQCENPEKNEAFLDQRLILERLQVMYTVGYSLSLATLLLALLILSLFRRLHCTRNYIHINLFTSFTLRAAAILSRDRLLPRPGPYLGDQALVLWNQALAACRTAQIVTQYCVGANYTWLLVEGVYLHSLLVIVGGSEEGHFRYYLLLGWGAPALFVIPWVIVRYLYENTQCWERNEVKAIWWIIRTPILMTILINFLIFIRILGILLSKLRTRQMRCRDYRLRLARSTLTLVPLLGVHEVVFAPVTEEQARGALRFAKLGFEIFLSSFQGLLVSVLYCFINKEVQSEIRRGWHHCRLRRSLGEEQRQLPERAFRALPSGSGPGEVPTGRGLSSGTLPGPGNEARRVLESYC
Procedure details: cell-based or functional assay
Property name: Rhesus GIPR CAMP Assay (Conc. mAb @ 60% Inhibition in nM)
Lab book: enter the figure in nM, no units written.

Example cases with answers are listed next.
>>> observed_value("4B1.013 (antibody, human IgG1, kappa, N297G, V domains shown) VH: QVQLVESGGGVVQPGRSLRLSCAASGFTFSNFGMHWVRQAPGKGLEWVAVIWYDASNENYADSVKGRFTISRDNSKNTLYLHMNSLRVADTAVYYCARDGTIFGVVLGDYWGQGTLVTVSS VL: DIQMTQSPSSLSASIGDRVTITCRASQDIRDYLGWYQQKPGKAPKLLIYGASSLQSGVPSRFSGSGSGTEFTLTISSLQPEDFATYYCLQHNNYPFTFGQGTKVDIKR")
1.35
>>> observed_value("12H11.005 (antibody, human IgG1, kappa, N297G, V domains shown) VH: QVPLVQSGAEVKKPGASVKVSCKASGYTFTGYYIHWVRQAPGQGLEWMGWISPNNGETNYAQKFQDRVTMTRDTSISTAYMELSRLRSDDTAVYYCAREATIFGMLIVPFDYWGQGTLVTVSS VL: DIVMTQSPDSLSVSLGERATINCKSSQSVLSSSNNKNYLAWYQQKPGQPPNLLIYWTSTRDSGVPDRFSGSGSGTDFTLTINSLQAEDVAVYYCQQYYRTPWTFGQGTKVEIKR")
0.61

Query: Looking for the measured Rhesus GIPR CAMP Assay (Conc. mAb @ 60% Inhibition in nM) of 11C1.008 (antibody, human IgG1, kappa, N297G, V domains shown) VH: QVPLVQSGAEVKKPGASVKVSCKASGYTFTGYYIHWVRQAPGQGLVWMGWISPNSGDTSYAQKFQDRVTMTRDTSISTAYMELSRLRSDDTAVYFCAREATIFGMLIVPFDYWGQGTLVTVSS VL: DIVMTQSPDSLSVSLGERATINCKSSQSVLSSSNNKNYLAWYQQKPGQPPNLLIYWTSTRDSGVPDRFSGSGSGTDFTLTINSLQAEDVAVYYCQQYYRTPWTFGQGTKVEIKR , can you help?
Reply: 0.43
